Tested on: LG0567-F671-PDC KRAS tumor spheroid viability
protocol-summary: Anticancer human tumor LG0567-F671-PDC patient-derived lung adenocarcinoma cell line growth inhibition [KRAS2]; active = viability on the fitted dose curve at most 10% of control; inactive = the rest
test-conditions: second compound 3.16 µM; first compound 0.0316 µM; spheroids with HUVEC and MSC
Your reply should match one of these outcome classes. true for active, false for inactive

Input line: What did this assay record as the result for CN(C)C/C=C/C(=O)Nc1cc2c(Nc3ccc(F)c(Cl)c3)ncnc2cc1O[C@H]1CCOC1 + C=CC(=O)N1CCN(c2nc(=O)n(-c3c(C)ccnc3C(C)C)c3nc(-c4c(O)cccc4F)c(F)cc23)C(C)C1 ?
Output line: false

Input line: What did this assay record as the result for CC1OCC2(CCN(c3cnc(Sc4ccnc(N)c4Cl)c(N)n3)CC2)C1N (stereo not given) + CNCc1ccccc1-c1csc(C(C)Nc2nc(C)nc3cc(OC)c(OC)cc23)c1 ?
Output line: false

Input line: What did this assay record as the result for CN(C)C/C=C/C(=O)Nc1cc2c(Nc3ccc(F)c(Cl)c3)ncnc2cc1O[C@H]1CCOC1 + CNCc1ccccc1-c1csc(C(C)Nc2nc(C)nc3cc(OC)c(OC)cc23)c1 ?
Output line: true

Input line: What did this assay record as the result for CC1COCCN1c1cc(-c2ccnn2C)c2ccnc(-c3ccn[nH]3)c2n1 (stereo not given) + CC1OCC2(CCN(c3cnc(Sc4ccnc(N)c4Cl)c(N)n3)CC2)C1N ?
Output line: false

Input line: What did this assay record as the result for Cn1ncnc1[C@H]1c2n[nH]c(=O)c3cc(F)cc(c23)N[C@@H]1c1ccc(F)cc1 + C=CC(=O)N1CCN(c2nc(=O)n(-c3c(C)ccnc3C(C)C)c3nc(-c4c(O)cccc4F)c(F)cc23)C(C)C1 ?
Output line: false

====

Test system: LG0567-F671-PDC KRAS tumor spheroid viability
protocol-summary: Anticancer human tumor LG0567-F671-PDC cell line growth inhibition [KRAS2];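 also: drug exposure lasted seven days after spheroids formed for three days; 100% = DMSO vehicle control viability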
test-conditions: second compound 3.16 µM; first compound 1 µM; stronger effect = lower value; spheroids with HUVEC and MSC
Please provide measured viability, T/C for the entries that follow.
Lab book: enter the figure in %, no units written.

Input line: // query viability, T/C value for entry COc1cc2nccc(Oc3ccc(NC(=O)C4(C(=O)Nc5ccc(F)cc5)CC4)cc3)c2cc1OC + COc1cc2nc(C)nc(NC(C)c3cc(N)cc(C(F)(F)F)c3)c2cc1OC1CCOC1
Output line: 24.8

Input line: // query viability, T/C value for entry O=C(c1cc(Cc2n[nH]c(=O)c3ccccc23)ccc1F)N1CCN(C(=O)C2CC2)CC1 + C=CC(=O)N1CCN(c2nc(OCC3CCCN3C)nc3c2CCN(c2cccc4cccc(C)c24)C3)CC1CC#N
Output line: 30.4

Input line: // query viability, T/C value for entry COc1cc2nccc(Oc3ccc(NC(=O)C4(C(=O)Nc5ccc(F)cc5)CC4)cc3)c2cc1OC + C=CC(=O)N1CCN(c2nc(OCC3CCCN3C)nc3c2CCN(c2cccc4cccc(C)c24)C3)CC1CC#N
Output line: 17.6

Input line: // query viability, T/C value for entry COc1cc(Nc2ncc3c(n2)-c2ccc(Cl)cc2C(c2c(F)cccc2OC)=NC3)ccc1C(=O)O + COc1cc2nc(C)nc(NC(C)c3cc(N)cc(C(F)(F)F)c3)c2cc1OC1CCOC1
Output line: 36.9

Input line: // query viability, T/C value for entry COc1cc(Nc2ncc3c(n2)-c2ccc(Cl)cc2C(c2c(F)cccc2OC)=NC3)ccc1C(=O)O + CC1OCC2(CCN(c3cnc(Sc4ccnc(N)c4Cl)c(N)n3)CC2)C1N
Output line: 8.9

Input line: // query viability, T/C value for entry CC1OCC2(CCN(c3cnc(Sc4ccnc(N)c4Cl)c(N)n3)CC2)C1N (stereo not given) + CNCc1ccccc1-c1csc(C(C)Nc2nc(C)nc3cc(OC)c(OC)cc23)c1
Output line: 13.4

Input line: // query viability, T/C value for entry CC(C)NCC(C(=O)N1CCN(c2ncnc3c2C(C)CC3O)CC1)c1ccc(Cl)cc1 (stereo not given) + CNCc1ccccc1-c1csc(C(C)Nc2nc(C)nc3cc(OC)c(OC)cc23)c1
Output line: 1.4

Input line: // query viability, T/C value for entry CC1(C)CCC(CN2CCN(c3ccc(C(=O)NS(=O)(=O)c4ccc(NCC5CCOCC5)c([N+](=O)[O-])c4)c(Oc4cnc5[nH]ccc5c4)c3)CC2)=C(c2ccc(Cl)cc2)C1 + CC1OCC2(CCN(c3cnc(Sc4ccnc(N)c4Cl)c(N)n3)CC2)C1N
Output line: 16.1

Input line: // query viability, T/C value for entry O=C(c1cc(Cc2n[nH]c(=O)c3ccccc23)ccc1F)N1CCN(C(=O)C2CC2)CC1 + C=CC(=O)N1CCN(c2nc(=O)n(-c3c(C)ccnc3C(C)C)c3nc(-c4c(O)cccc4F)c(F)cc23)C(C)C1
Output line: 23.8

Input line: // query viability, T/C value for entry COC(=O)c1ccc2c(C(=Nc3ccc(N(C)C(=O)CN4CCN(C)CC4)cc3)c3ccccc3)c(O)[nH]c2c1 + COc1cc2nc(C)nc(NC(C)c3cc(N)cc(C(F)(F)F)c3)c2cc1OC1CCOC1
Output line: 71.8

Input line: // query viability, T/C value for entry Cn1nccc1Nc1nccc(-c2cc3c(s2)C(C)(C)N(CCN2CCOCC2)C3=O)n1 + C=CC(=O)N1CCN(c2nc(=O)n(-c3c(C)ccnc3C(C)C)c3nc(-c4c(O)cccc4F)c(F)cc23)C(C)C1
Output line: 12.2

Input line: // query viability, T/C value for entry COc1cc(Nc2ncc3c(n2)-c2ccc(Cl)cc2C(c2c(F)cccc2OC)=NC3)ccc1C(=O)O + C=CC(=O)N1CCN(c2nc(=O)n(-c3c(C)ccnc3C(C)C)c3nc(-c4c(O)cccc4F)c(F)cc23)C(C)C1
Output line: 22.2

Input line: // query viability, T/C value for entry CC(=O)OC12COC1CC(O)C1(C)C(=O)C(O)C3=C(C)C(OC(=O)C(O)C(NC(=O)OC(C)(C)C)c4ccccc4)CC(O)(C(OC(=O)c4ccccc4)C21)C3(C)C (stereo not given) + COc1cc2nc(C)nc(NC(C)c3cc(N)cc(C(F)(F)F)c3)c2cc1OC1CCOC1
Output line: 57.1

Input line: // query viability, T/C value for entry COc1cc2nccc(Oc3ccc(NC(=O)C4(C(=O)Nc5ccc(F)cc5)CC4)cc3)c2cc1OC + CNCc1ccccc1-c1csc(C(C)Nc2nc(C)nc3cc(OC)c(OC)cc23)c1
Output line: 0.11

Input line: // query viability, T/C value for entry CC1OCC2(CCN(c3cnc(Sc4ccnc(N)c4Cl)c(N)n3)CC2)C1N (stereo not given) + COc1cc2nc(C)nc(NC(C)c3cc(N)cc(C(F)(F)F)c3)c2cc1OC1CCOC1
Output line: 25.4

Input line: // query viability, T/C value for entry CC1OCC2(CCN(c3cnc(Sc4ccnc(N)c4Cl)c(N)n3)CC2)C1N (stereo not given) + C=CC(=O)N1CCN(c2nc(OCC3CCCN3C)nc3c2CCN(c2cccc4cccc(C)c24)C3)CC1CC#N
Output line: 8.14

Input line: // query viability, T/C value for entry Cn1nccc1Nc1nccc(-c2cc3c(s2)C(C)(C)N(CCN2CCOCC2)C3=O)n1 + C=CC(=O)N1CCN(c2nc(OCC3CCCN3C)nc3c2CCN(c2cccc4cccc(C)c24)C3)CC1CC#N
Output line: 23.2

Input line: // query viability, T/C value for entry CCNC(=O)CC1N=C(c2ccc(Cl)cc2)c2cc(OC)ccc2-n2c(C)nnc21 (stereo not given) + C=CC(=O)N1CCN(c2nc(=O)n(-c3c(C)ccnc3C(C)C)c3nc(-c4c(O)cccc4F)c(F)cc23)C(C)C1
Output line: 16.3

Input line: // query viability, T/C value for entry CC1(C)CCC(CN2CCN(c3ccc(C(=O)NS(=O)(=O)c4ccc(NCC5CCOCC5)c([N+](=O)[O-])c4)c(Oc4cnc5[nH]ccc5c4)c3)CC2)=C(c2ccc(Cl)cc2)C1 + C=CC(=O)N1CCN(c2nc(=O)n(-c3c(C)ccnc3C(C)C)c3nc(-c4c(O)cccc4F)c(F)cc23)C(C)C1
Output line: 27.1

Input line: // query viability, T/C value for entry CCNC(=O)CC1N=C(c2ccc(Cl)cc2)c2cc(OC)ccc2-n2c(C)nnc21 (stereo not given) + C=CC(=O)N1CCN(c2nc(OCC3CCCN3C)nc3c2CCN(c2cccc4cccc(C)c24)C3)CC1CC#N
Output line: 13.3
